Experiment: Half life in rat at 5 mg/kg, po
Type: ADME, organism-based
Design: dose 5 mg/kg, route oral
Settings: in vivo
measured property: half-life (h)
Form entry: value (h) — number only.

I have this compound here, N#Cc1cccc(-c2c[nH]c3ncnc(N4CCOCC4)c23)c1 , and I need its recorded half-life.
6.22

* * *

Assay: Cmax in non-human primate at 5 mg/kg, po
Type: ADME, organism-based
Set-up: dose 5 mg/kg, route oral
Settings: monkey, in vivo
measured property: Cmax (ng/mL)
Form entry: value (ng/mL) — number only.

I have this compound here, N#Cc1cccc(-c2c[nH]c3ncnc(N4CCOCC4)c23)c1 , and I need its recorded Cmax.
25

* * *

Test: Oral bioavailability in rat at 5 mg/kg
Format: ADME, organism-based
Conditions: in vivo
measured property: bioavailability (%)
Form entry: value (%) — number only.

I have this compound here, N#Cc1cccc(-c2c[nH]c3ncnc(N4CCOCC4)c23)c1 , and I need its recorded bioavailability.
41

* * *

Experiment: Oral bioavailability in non-human primate at 5 mg/kg
Format: ADME, organism-based
Settings: monkey, in vivo
measured property: bioavailability (%)
Form entry: value (%) — number only.

I have this compound here, N#Cc1cccc(-c2c[nH]c3ncnc(N4CCOCC4)c23)c1 , and I need its recorded bioavailability.
3.5

* * *

Experiment: AUC in rat at 5 mg/kg, po
Format: ADME, organism-based
Parameters: dose 5 mg/kg, route oral
Details: plasma
measured property: AUC (ng·h/mL)
Form entry: value (ng·h/mL) — number only.

I have this compound here, N#Cc1cccc(-c2c[nH]c3ncnc(N4CCOCC4)c23)c1 , and I need its recorded AUC.
629

* * *

Target: Serine/threonine-protein kinase 26 (Homo sapiens, UniProt Q9P289)
Sequence (Q9P289 whole entry): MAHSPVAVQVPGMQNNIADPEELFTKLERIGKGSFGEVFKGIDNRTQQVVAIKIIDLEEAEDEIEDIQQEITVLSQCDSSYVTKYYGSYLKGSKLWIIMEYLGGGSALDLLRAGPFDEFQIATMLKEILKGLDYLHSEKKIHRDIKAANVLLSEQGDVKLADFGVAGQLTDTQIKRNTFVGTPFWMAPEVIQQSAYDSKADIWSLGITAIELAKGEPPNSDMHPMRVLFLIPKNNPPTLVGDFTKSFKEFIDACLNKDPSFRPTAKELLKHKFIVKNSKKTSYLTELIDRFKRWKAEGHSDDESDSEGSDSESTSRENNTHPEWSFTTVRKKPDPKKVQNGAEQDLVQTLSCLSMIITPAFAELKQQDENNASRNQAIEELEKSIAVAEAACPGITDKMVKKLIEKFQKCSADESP
Assay: Inhibition of human recombinant MST4 using Ser/Thr peptide 7 substrate after 60 mins by Z-Lyte assay
measured property: pIC50
In simple prose, pIC50 is minus the logarithm base ten of a concentration in moles per litre.

Example cases with answers are listed next.
# molecule, system tested, pIC50
measured = [
    ("Cc1nc([C@@H]2CN(c3ncnc4[nH]cc(-c5cccc(C#N)c5)c34)CCO2)no1", "Serine/threonine-protein kinase 26 (Homo sapiens, UniProt Q9P289)", 4.92),
    ("Cc1nc([C@H]2CN(c3ncnc4[nH]cc(-c5cccc(C#N)c5)c34)CCO2)no1", "Serine/threonine-protein kinase 26 (Homo sapiens, UniProt Q9P289)", 5.03),
    ("N#Cc1cccc(-c2c[nH]c3ncnc(N4CCOCC4)c23)c1", "Serine/threonine-protein kinase 26 (Homo sapiens, UniProt Q9P289)", 6.75),
    ("N#Cc1cccc(-c2c[nH]c3ncnc(N4CC5CCOC5C4)c23)c1 (configuration not stated)", "Serine/threonine-protein kinase 26 (Homo sapiens, UniProt Q9P289)", 4.99),
    ("C[C@H]1CN(c2ncnc3[nH]cc(-c4cccc(C#N)c4)c23)CCO1", "Serine/threonine-protein kinase 26 (Homo sapiens, UniProt Q9P289)", 5.96),
]

I have this molecule here, N#Cc1cccc(-c2c[nH]c3ncnc(N4CCOC(C#N)C4)c23)c1 (configuration not stated) , and I need its recorded pIC50.
5.21

* * *

Test: Oral bioavailability in dog at 5 mg/kg
Assay type: ADME, organism-based, Canis lupus familiaris
Conditions: in vivo
measured property: bioavailability (%)
Form entry: value (%) — number only.

I have this molecule here, N#Cc1cccc(-c2c[nH]c3ncnc(N4CCOCC4)c23)c1 , and I need its recorded bioavailability.
0.6
